molecular target: human class II OR identified in the library screening (Homo sapiens); test: Confirmatory dose-response analysis of library-hit OR with cognate ligand, wild-type vs C-terminal domain SEQ ID NO: 221 (Table 17); conditions: read-out: Potency, EC50 changed C-term; OR10K1, modified C-terminus SEQ ID NO: 221 (SEQ ID NO: 687)
experimental-readout: EC50 (nM)
Report the figure in nM without appending any unit label.

Tell me its EC50 given "CC(C)CCc1ccc2c(c1)OCC(=O)CO2" as the entry.
2200

---

EC2 (concentration for 2-fold luciferase induction) overview
Target: OR7D4 (Homo sapiens, UniProt Q8NG98, D296E/E302K/G299D)
Construct: Improved functional expression of modified OR-genes containing the truncated, optimized C-terminus; expressed in transfected cells
Sequence (Q8NG98 with tags, fused parts or gaps D296E/G299D/E302K): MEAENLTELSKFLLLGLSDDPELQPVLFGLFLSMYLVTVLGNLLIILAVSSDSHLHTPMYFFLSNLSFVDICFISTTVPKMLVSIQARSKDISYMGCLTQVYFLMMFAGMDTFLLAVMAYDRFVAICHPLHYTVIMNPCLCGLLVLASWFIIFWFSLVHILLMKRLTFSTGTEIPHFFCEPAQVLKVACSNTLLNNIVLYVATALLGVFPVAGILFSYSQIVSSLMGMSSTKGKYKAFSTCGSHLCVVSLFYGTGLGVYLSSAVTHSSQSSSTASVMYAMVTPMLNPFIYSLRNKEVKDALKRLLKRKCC
Experiment: CRE-luciferase assay, HEK cells expressing OR7D4 (wild-type / modified C-terminus)
Assay type: cell-based
Conditions: OR7D4 variant, Androstenone
Write your answer as a measured quantity: the number, then the unit.

1. SEQ ID NO: 258 (RNRDVKKAVHKLFRRKCC; source 1..18: note = C-terminal domain sequence): 0.011 µM
2. SEQ ID NO: 292 (RNKDVRKAVKRLLKKRCC; source 1..18: note = C-terminal domain sequence): 0.018 µM
3. SEQ ID NO: 268 (RNREVRKALRRIIRKRCC; source 1..18: note = C-terminal domain sequence): 0.003 µM

Given the substance SEQ ID NO: 277 (RNRDVRKAVRKLFKRRCC; source 1..18: note = C-terminal domain sequence) , write its reported EC2 (concentration for 2-fold luciferase induction).
0.005 µM

Using the record for SEQ ID NO: 282 (RNRDVKKAIRRLFRRRCC; source 1..18: note = C-terminal domain sequence) , state its measured EC2 (concentration for 2-fold luciferase induction).
0.007 µM

Please give measured EC2 (concentration for 2-fold luciferase induction) of the following entry: SEQ ID NO: 272 (RNRDLRKALRRIFKRRCC; source 1..18: note = C-terminal domain sequence)
0.013 µM

// fetch EC2 (concentration for 2-fold luciferase induction) given entry SEQ ID NO: 269 (RNKDIRKAVKKIFRRKCC; source 1..18: note = C-terminal domain sequence)
0.026 µM

---

The listing below reports Detection threshold; concentration for 2-fold induction, changed C-term. for molecules tested on human class II OR identified in the library screening.
Give your result in µM as a bare value.

Record excerpt, results attached:
1) N#CC(=C1CCCCC1)c1ccccc1 [Peonile]: 0.4
2) O=C(OCc1ccccc1)c1ccccc1O [Benzyl salicylate]: 1.3
3) CC1=C(O)C(=O)C(C)O1 (stereo not drawn) [Furaneol]: 0.3

State its Detection threshold; concentration for 2-fold induction, changed C-term.: CC(C)c1ccc2c(c1)OCC(=O)CO2 [Cascalone]
108.6

Please supply the value of reported Detection threshold; concentration for 2-fold induction, changed C-term. for the item CC/C(C)=C/CC[C@H](C)CCO [(E,S)-3,7-dimethylnon-6-en-1-ol]
3.0

Answer with reported Detection threshold; concentration for 2-fold induction, changed C-term. of CC=Cc1ccc(O)c(OC)c1 [Isoeugenol]
1.4

---

target: UniProtKB Q9Y4A9; assay: Confirmatory dose-response analysis of library-hit OR with cognate ligand, wild-type vs C-terminal domain SEQ ID NO: 221 (Table 17); details: read-out: Potency, EC50 changed C-term; OR10H1, modified C-terminus SEQ ID NO: 221 (SEQ ID NO: 679);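 also: Wild-type receptor sequences expressed from the pcDNA3.1(+) vector and compared with the C-terminally modified receptors in dose-response tests using each receptor's cognate ligand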
Sequence (Q9Y4A9 1-297): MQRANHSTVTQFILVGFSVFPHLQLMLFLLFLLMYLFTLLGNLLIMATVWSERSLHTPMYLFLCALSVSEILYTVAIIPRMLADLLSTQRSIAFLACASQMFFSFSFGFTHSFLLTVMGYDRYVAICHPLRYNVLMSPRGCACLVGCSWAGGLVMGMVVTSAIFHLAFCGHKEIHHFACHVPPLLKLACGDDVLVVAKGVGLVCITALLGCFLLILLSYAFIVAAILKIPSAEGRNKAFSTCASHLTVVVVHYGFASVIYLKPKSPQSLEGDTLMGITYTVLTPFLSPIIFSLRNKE
experimental-readout: EC50 (µM)
State just the number; it will be interpreted in µM.

Note EC50 for the molecule shown: "CC(C)CCc1ccc2c(c1)OCC(=O)CO2"
7

---

Biological target: OR2AP1 (Homo sapiens, UniProt Q8NGE2)
Construct: expressed in transfected cells; transient transfection of pcDNA3.1(+) OR plasmid
Sequence (Q8NGE2 with tags, fused parts or gaps limits assumed): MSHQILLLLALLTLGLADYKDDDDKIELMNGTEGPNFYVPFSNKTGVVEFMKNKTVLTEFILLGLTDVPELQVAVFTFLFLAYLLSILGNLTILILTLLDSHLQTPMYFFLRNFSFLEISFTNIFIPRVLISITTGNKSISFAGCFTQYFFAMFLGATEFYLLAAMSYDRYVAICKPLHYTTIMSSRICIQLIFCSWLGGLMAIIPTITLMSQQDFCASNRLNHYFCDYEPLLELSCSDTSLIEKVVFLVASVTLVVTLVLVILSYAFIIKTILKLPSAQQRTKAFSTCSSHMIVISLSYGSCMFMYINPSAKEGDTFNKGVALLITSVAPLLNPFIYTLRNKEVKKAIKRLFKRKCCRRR
Experiment: Dose-response test of single lactones on OR2AP1
Format: cell-based
Each item that follows carries a reported EC2 (concentration for 2-fold luciferase induction).
Response body: numeric value in µM, unit text excluded.

Below, 4 molecules whose answers are already recorded.
1) CCCCCCCCC1CCC(=O)O1 (centres unmarked): 1.31
2) CCCCCCCC1CCCC(=O)O1 (centres unmarked): 15.76
3) CC1=CCC(C(C)CC2CCCC2=O)CC1 (centres unmarked): 19.72
4) CCCCCCC1CCC(=O)O1 (centres unmarked): 33.66

Look up and state reported EC2 (concentration for 2-fold luciferase induction) for CCCCCCCC1CCC(=O)O1 (centres unmarked)
6.53

---

As shown below, each of these substances has a reported % of the activation by the optimized sequence RNKEVKDALKRLLKRKCC value.
Biological target: OR2T4 (Homo sapiens, UniProt Q8NH00, D328E/G331D/M330K)
Sequence (Q8NH00 with tags, fused parts or gaps D328E/M330K/G331D): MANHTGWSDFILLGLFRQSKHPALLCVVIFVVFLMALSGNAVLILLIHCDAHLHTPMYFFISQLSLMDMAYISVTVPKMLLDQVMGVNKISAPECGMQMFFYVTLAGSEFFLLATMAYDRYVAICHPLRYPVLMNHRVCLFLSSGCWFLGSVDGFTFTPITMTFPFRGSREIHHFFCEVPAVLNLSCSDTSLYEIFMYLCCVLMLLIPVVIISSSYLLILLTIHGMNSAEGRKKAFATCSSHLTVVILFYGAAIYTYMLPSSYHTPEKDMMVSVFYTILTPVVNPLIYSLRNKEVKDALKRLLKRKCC
Settings: OR2T4 variant, 4 μM 2-methyl-3-tetrahydrofuranethiol
Express the result in % but write the number alone.

Recall the reported % of the activation by the optimized sequence RNKEVKDALKRLLKRKCC of SEQ ID NO: 221 (RNKEVKKAIKRLFKRKCCRRR; source 1..21: note = C-terminal domain sequence) when tested on OR2T4 (Homo sapiens, UniProt Q8NH00, D328E/G331D/M330K).
103.1

GET % of the activation by the optimized sequence RNKEVKDALKRLLKRKCC | system: OR2T4 (Homo sapiens, UniProt Q8NH00, D328E/G331D/M330K) | item: SEQ ID NO: 220 (RNKEVKKAIKRLLKRKCCRRR; source 1..21: note = C-terminal domain sequence)
76.6

Would you please give the reported % of the activation by the optimized sequence RNKEVKDALKRLLKRKCC of SEQ ID NO: 133 (RNKEVKDALKRLLKRKCRR; source 1..19: note = C-terminal domain sequence) with OR2T4 (Homo sapiens, UniProt Q8NH00, D328E/G331D/M330K)?
101.4

Quote OR2T4 (Homo sapiens, UniProt Q8NH00, D328E/G331D/M330K) % of the activation by the optimized sequence RNKEVKDALKRLLKRKCC for entry SEQ ID NO: 121 (RNKEVKRAIKRLLKRKCR; source 1..18: note = C-terminal domain sequence) .
139.9

GET % of the activation by the optimized sequence RNKEVKDALKRLLKRKCC | system: OR2T4 (Homo sapiens, UniProt Q8NH00, D328E/G331D/M330K) | item: SEQ ID NO: 114 (RNKEVKRAIKRLLKRKCC; source 1..18: note = C-terminal domain sequence)
108.8

---

molecular target: OR5A1 (Homo sapiens, UniProt Q8NGJ0, I300V); construct: Improved functional expression of modified OR-genes containing the truncated, optimized C-terminus; assay: CRE-luciferase assay, HEK293T cells expressing OR5A1 (wild-type / modified C-terminus); conditions: wild-type
Sequence (Q8NGJ0 with tags, fused parts or gaps I300V): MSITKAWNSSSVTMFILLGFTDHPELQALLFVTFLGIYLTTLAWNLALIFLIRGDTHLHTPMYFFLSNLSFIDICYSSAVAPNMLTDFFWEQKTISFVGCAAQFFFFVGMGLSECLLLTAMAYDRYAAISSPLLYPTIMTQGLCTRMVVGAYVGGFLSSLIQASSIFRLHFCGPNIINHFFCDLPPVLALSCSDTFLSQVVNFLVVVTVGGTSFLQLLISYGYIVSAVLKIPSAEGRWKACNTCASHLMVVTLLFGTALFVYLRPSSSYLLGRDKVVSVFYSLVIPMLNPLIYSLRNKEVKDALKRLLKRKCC
experimental-readout: EC50 (µM)
The response must be a number in µM with no trailing unit.

Quote EC50 reported for "CC(=O)/C=C/C1=C(C)CCCC1(C)C" please.
5.5
